Attribution: PubChem BioAssay AID1919014

system: NCI-H1341 complex spheroids, percent test/control; assay: Anticancer human tumor NCI-H1341 cell line growth inhibition [AhR]; details: second compound 3.16 µM; first compound 3.16 µM; active = viability on the fitted dose curve at most 10% of control; inactive = the rest;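 also: spheroids exposed to agents for seven days before readout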
API: response.call in active, inactive

Please indicate how the test categorized COc1cccc2c1C(=O)c1c(O)c3c(c(O)c1C2=O)CC(O)(C(=O)CO)CC3OC1CC(N)C(O)C(C)O1 (stereo not drawn) + Cc1cncc(-c2nc(NCCc3c[nH]c4ccccc34)c3ncn(C(C)C)c3n2)c1 . active

Please indicate how the test categorized CC(C)c1c(-c2ccccc2)nc2c(C#N)c[nH]n2c1=O + CC(CO)NC(=O)c1cc(-c2ccc(Cl)cc2)nn(-c2cnn(C)c2)c1=O . inactive

Please indicate how the test categorized COc1cc(Nc2ncc3c(n2)-c2ccc(Cl)cc2C(c2c(F)cccc2OC)=NC3)ccc1C(=O)O + Cc1cncc(-c2nc(NCCc3c[nH]c4ccccc34)c3ncn(C(C)C)c3n2)c1 . inactive

---

Provide the reported viability, T/C of each item.
tested on: NCI-H1341 complex spheroids, percent test/control; assay: Anticancer human tumor NCI-H1341 cell line growth inhibition [AhR]; conditions: second compound 0.1 µM; first compound 3.16 µM; stronger effect = lower value;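 also: spheroids exposed to agents for seven days before readout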
Response body: numeric value in %, unit text excluded.

Dear colleague, I am looking for the recorded viability, T/C of the following molecule: CC1COCCN1c1cc(C2(S(C)(=N)=O)CC2)nc(-c2ccnc3[nH]ccc23)n1 (stereo not drawn) + Cc1ccccc1N=Nc1ccc(NC(=O)c2ccnn2C)c(C)c1 45.2

Dear colleague, I am looking for the recorded viability, T/C of the following molecule: COc1ccc([C@@H](O)c2cc(-c3ncnc4cc(N5CCOCC5)ccc34)c(F)cc2Cl)nn1 + Cc1cncc(-c2nc(NCCc3c[nH]c4ccccc34)c3ncn(C(C)C)c3n2)c1 24.6

Dear colleague, I am looking for the recorded viability, T/C of the following molecule: Nc1ccccc1NC(=O)c1ccc(CNC(=O)OCc2cccnc2)cc1 + Cc1ccccc1N=Nc1ccc(NC(=O)c2ccnn2C)c(C)c1 9.11

---

tested on: NCI-H1341 complex spheroids, percent test/control; assay: Anticancer human tumor NCI-H1341 cell line growth inhibition [AhR]; details: second compound 0.316 µM; first compound 10 µM; stronger effect = lower value;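 also: spheroids exposed to agents for seven days before readout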
Property measured: viability, T/C (%)
Response body: numeric value in %, unit text excluded.

// lookup viability, T/C | system=NCI-H1341 complex spheroids, percent test/control | key= NS(=O)(=O)OCC1CC(n2ccc3c(NC4CCc5ccccc54)ncnc32)CC1O (stereo not drawn) + CC(CO)NC(=O)c1cc(-c2ccc(Cl)cc2)nn(-c2cnn(C)c2)c1=O 3.76

// lookup viability, T/C | system=NCI-H1341 complex spheroids, percent test/control | key= O=C(c1cc(Cc2n[nH]c(=O)c3ccccc23)ccc1F)N1CCN(C(=O)C2CC2)CC1 + Cc1ccccc1N=Nc1ccc(NC(=O)c2ccnn2C)c(C)c1 59.1

// lookup viability, T/C | system=NCI-H1341 complex spheroids, percent test/control | key= O=C(C=Cc1cccc(S(=O)(=O)Nc2ccccc2)c1)NO + Cc1cncc(-c2nc(NCCc3c[nH]c4ccccc34)c3ncn(C(C)C)c3n2)c1 0.65

---

system: NCI-H1341 complex spheroids, percent test/control; assay: Anticancer human tumor NCI-H1341 cell line growth inhibition [AhR]; settings: second compound 0.1 µM; first compound 0.000316 µM; stronger effect = lower value;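 also: spheroids exposed to agents for seven days before readout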
Property measured: viability, T/C (%)
Response body: numeric value in %, unit text excluded.

Dear colleague, I am looking for the recorded viability, T/C of the following molecule: CC[C@@]1(O)C(=O)OCc2c1cc1n(c2=O)Cc2cc3c(CN(C)C)c(O)ccc3nc2-1 + Cc1ccccc1N=Nc1ccc(NC(=O)c2ccnn2C)c(C)c1 103

Dear colleague, I am looking for the recorded viability, T/C of the following molecule: CC[C@@]1(O)C(=O)OCc2c1cc1n(c2=O)Cc2cc3c(CN(C)C)c(O)ccc3nc2-1 + Cc1cncc(-c2nc(NCCc3c[nH]c4ccccc34)c3ncn(C(C)C)c3n2)c1 90.4

Dear colleague, I am looking for the recorded viability, T/C of the following molecule: Cn1ncnc1C1c2n[nH]c(=O)c3cc(F)cc(c23)NC1c1ccc(F)cc1 (stereo not drawn) + CC(CO)NC(=O)c1cc(-c2ccc(Cl)cc2)nn(-c2cnn(C)c2)c1=O 79.2

---

test system: NCI-H1341 complex spheroids, percent test/control; test: Anticancer human tumor NCI-H1341 cell line growth inhibition [AhR]; conditions: second compound 10 µM; first compound 0.00949 µM; active = viability on the fitted dose curve at most 10% of control; inactive = the rest;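 also: spheroids exposed to agents for seven days before readout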
API: response.call in active, inactive

Please indicate how the test categorized CC(C)CC(NC(=O)C(Cc1ccccc1)NC(=O)c1cnccn1)B(O)O (stereo not drawn) + CC(CO)NC(=O)c1cc(-c2ccc(Cl)cc2)nn(-c2cnn(C)c2)c1=O . active

Please indicate how the test categorized CCN(c1cc(-c2ccc(CN3CCOCC3)cc2)cc(C(=O)NCc2c(C)cc(C)[nH]c2=O)c1C)C1CCOCC1 + Cc1ccccc1N=Nc1ccc(NC(=O)c2ccnn2C)c(C)c1 . inactive

Please indicate how the test categorized Nc1ncn(C2CC(O)C(CO)S2)c(=O)n1 (stereo not drawn) + CC(CO)NC(=O)c1cc(-c2ccc(Cl)cc2)nn(-c2cnn(C)c2)c1=O . inactive

---

Provide the reported viability, T/C of each item.
system: NCI-H1341 complex spheroids, percent test/control; test: Anticancer human tumor NCI-H1341 cell line growth inhibition [AhR]; conditions: second compound 0.1 µM; first compound 0.01 µM; stronger effect = lower value;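 also: spheroids exposed to agents for seven days before readout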
Response body: numeric value in %, unit text excluded.

Dear colleague, I am looking for the recorded viability, T/C of the following molecule: CC1COCCN1c1cc(-c2ccnn2C)c2ccnc(-c3ccn[nH]3)c2n1 (stereo unspecified) + Cc1ccccc1N=Nc1ccc(NC(=O)c2ccnn2C)c(C)c1 99.1

Dear colleague, I am looking for the recorded viability, T/C of the following molecule: CC[C@@]1(O)C(=O)OCc2c1cc1n(c2=O)Cc2cc3c(CN(C)C)c(O)ccc3nc2-1 + Cc1ccccc1N=Nc1ccc(NC(=O)c2ccnn2C)c(C)c1 80.2

Dear colleague, I am looking for the recorded viability, T/C of the following molecule: CC1COCCN1c1cc(-c2ccnn2C)c2ccnc(-c3ccn[nH]3)c2n1 (stereo unspecified) + Cc1cncc(-c2nc(NCCc3c[nH]c4ccccc34)c3ncn(C(C)C)c3n2)c1 97

Dear colleague, I am looking for the recorded viability, T/C of the following molecule: Nc1ncn(C2CC(O)C(CO)O2)c(=O)n1 (stereo unspecified) + Cc1cncc(-c2nc(NCCc3c[nH]c4ccccc34)c3ncn(C(C)C)c3n2)c1 89.2

Dear colleague, I am looking for the recorded viability, T/C of the following molecule: Nc1ncn(C2CC(O)C(CO)O2)c(=O)n1 (stereo unspecified) + Cc1ccccc1N=Nc1ccc(NC(=O)c2ccnn2C)c(C)c1 103

Dear colleague, I am looking for the recorded viability, T/C of the following molecule: CC[C@@]1(O)C(=O)OCc2c1cc1n(c2=O)Cc2cc3c(CN(C)C)c(O)ccc3nc2-1 + Cc1cncc(-c2nc(NCCc3c[nH]c4ccccc34)c3ncn(C(C)C)c3n2)c1 64

---

Provide the reported viability, T/C of each item.
system: NCI-H1341 complex spheroids, percent test/control; assay: Anticancer human tumor NCI-H1341 cell line growth inhibition [AhR]; conditions: second compound 10 µM; first compound 0.0949 µM; stronger effect = lower value;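 also: spheroids exposed to agents for seven days before readout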
Response body: numeric value in %, unit text excluded.

Dear colleague, I am looking for the recorded viability, T/C of the following compound: CC(C)CC(NC(=O)C(Cc1ccccc1)NC(=O)c1cnccn1)B(O)O (configuration not stated) + Cc1ccccc1N=Nc1ccc(NC(=O)c2ccnn2C)c(C)c1 0.18

Dear colleague, I am looking for the recorded viability, T/C of the following compound: CC(C)CC(NC(=O)C(Cc1ccccc1)NC(=O)c1cnccn1)B(O)O (configuration not stated) + Cc1cncc(-c2nc(NCCc3c[nH]c4ccccc34)c3ncn(C(C)C)c3n2)c1 0.15

Dear colleague, I am looking for the recorded viability, T/C of the following compound: Nc1ncn(C2CC(O)C(CO)S2)c(=O)n1 (configuration not stated) + Cc1ccccc1N=Nc1ccc(NC(=O)c2ccnn2C)c(C)c1 45.2

Dear colleague, I am looking for the recorded viability, T/C of the following compound: CCc1c2c(nc3ccc(O)cc13)-c1cc3c(c(=O)n1C2)COC(=O)[C@]3(O)CC + CC(CO)NC(=O)c1cc(-c2ccc(Cl)cc2)nn(-c2cnn(C)c2)c1=O 23.4

Dear colleague, I am looking for the recorded viability, T/C of the following compound: CCN(c1cc(-c2ccc(CN3CCOCC3)cc2)cc(C(=O)NCc2c(C)cc(C)[nH]c2=O)c1C)C1CCOCC1 + Cc1ccccc1N=Nc1ccc(NC(=O)c2ccnn2C)c(C)c1 54.6

Dear colleague, I am looking for the recorded viability, T/C of the following compound: O=C(C=Cn1cnc(-c2cc(C(F)(F)F)cc(C(F)(F)F)c2)n1)NNc1cnccn1 + Cc1ccccc1N=Nc1ccc(NC(=O)c2ccnn2C)c(C)c1 24.2

Dear colleague, I am looking for the recorded viability, T/C of the following compound: Nc1ncn(C2CC(O)C(CO)S2)c(=O)n1 (configuration not stated) + CC(CO)NC(=O)c1cc(-c2ccc(Cl)cc2)nn(-c2cnn(C)c2)c1=O 63.6

Dear colleague, I am looking for the recorded viability, T/C of the following compound: O=C(C=Cn1cnc(-c2cc(C(F)(F)F)cc(C(F)(F)F)c2)n1)NNc1cnccn1 + CC(CO)NC(=O)c1cc(-c2ccc(Cl)cc2)nn(-c2cnn(C)c2)c1=O 27.2

Dear colleague, I am looking for the recorded viability, T/C of the following compound: CCN(c1cc(-c2ccc(CN3CCOCC3)cc2)cc(C(=O)NCc2c(C)cc(C)[nH]c2=O)c1C)C1CCOCC1 + CC(CO)NC(=O)c1cc(-c2ccc(Cl)cc2)nn(-c2cnn(C)c2)c1=O 73.3

Dear colleague, I am looking for the recorded viability, T/C of the following compound: CCc1c2c(nc3ccc(O)cc13)-c1cc3c(c(=O)n1C2)COC(=O)[C@]3(O)CC + Cc1ccccc1N=Nc1ccc(NC(=O)c2ccnn2C)c(C)c1 22.6

Dear colleague, I am looking for the recorded viability, T/C of the following compound: CC(C)CC(NC(=O)C(Cc1ccccc1)NC(=O)c1cnccn1)B(O)O (configuration not stated) + CC(CO)NC(=O)c1cc(-c2ccc(Cl)cc2)nn(-c2cnn(C)c2)c1=O 0.12

Dear colleague, I am looking for the recorded viability, T/C of the following compound: CCN(c1cc(-c2ccc(CN3CCOCC3)cc2)cc(C(=O)NCc2c(C)cc(C)[nH]c2=O)c1C)C1CCOCC1 + Cc1cncc(-c2nc(NCCc3c[nH]c4ccccc34)c3ncn(C(C)C)c3n2)c1 44.1
